# experiment_description: Solubility studies (excess drug, agitation at least 24 h, HPLC)
# Format: physicochemical
# cond: 50% (v/v) ethanol, aqueous with cosolvent or surfactant or cyclodextrin, thermodynamic from solid; 50% ethanol; read-out: Solubility
property_name: solubility

Can you share its solubility? I mean this compound: `COc1cc(/C=C/C(=O)N2CCC=CC2=O)cc(OC)c1OC`
~2300 µg/mL

====

# experiment_description: Solubility studies (excess drug, agitation at least 24 h, HPLC)
# Assay type: physicochemical
# cond: 20% (w/v) hydroxypropyl-β-cyclodextrin; read-out: Solubility
property_name: solubility (µg/mL)
One number for each entry, in µg/mL.

Can you share its solubility? I mean this compound: `COc1cc(/C=C/C(=O)N2CCC=CC2=O)cc(OC)c1OC`
1000

====

# experiment_description: n-octanol/water partitioning study
# Format: physicochemical
# cond: room temperature, read-out: Partition coefficient (log P)
property_name: logP at 24 h
Numbers only.

Can you share its logP at 24 h? I mean this compound: `COc1cc(/C=C/C(=O)N2CCC=CC2=O)cc(OC)c1OC`
2.37

====

# experiment_description: Solubility studies (excess drug, agitation at least 24 h, HPLC)
# Format: physicochemical
# cond: 20% (w/v) hydroxypropyl-β-cyclodextrin, aqueous with cosolvent or surfactant or cyclodextrin, thermodynamic from solid; read-out: Solubility
property_name: solubility

Can you share its solubility? I mean this compound: `COc1cc(/C=C/C(=O)N2CCC=CC2=O)cc(OC)c1OC`
~1000 µg/mL
